- experiment_summary: NCI Yeast Anticancer Drug Screen. Data for the wt1 strain (AID 149);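 further: 0% = growth of vehicle-treated wt1 cultures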
- condition_set: S. cerevisiae wt1 strain (SPY 50644) growth inhibition; at 33.0 µM; stronger effect = higher value
- Procedure: Growth inhibition of yeast strains with defined genetic alterations is measured as a screen for potential anti-cancer activity. Selected strains with alterations in DNA damage repair or cell cycle control were exposed to compounds and growth inhibition was measured relative to vehicle treated controls. The strain used in this assay is wt1
This is part of a sample that, as a whole, favours compounds with a hit. Of some 79,000 tested, about 15% had one in any assay.
Reported growth inhibition by item:
property_measured: growth inhibition (%)

molecule: CN=C(N)N/N=C/c1ccc2c(c1)Cc1ccccc1-2
recorded_value: 8
--
molecule: Cc1ccc(S/N=C\c2ccccc2O)cc1
recorded_value: 1
--
molecule: C(=C\c1ccccc1)/COc1ccccc1C(N1CCOCC1)n1nc2ccccc2n1 (stereo unspecified)
recorded_value: 88
--
molecule: Cc1cc2c(cc1C(=O)CCC(=O)O)CC1(C2)Cc2cc(C)c(C(=O)CCC(=O)O)cc2C1
recorded_value: 21
--
molecule: S=C(N/N=C(/c1ccccc1)c1ccccn1)N1CCCCCC1
recorded_value: 2
--
molecule: COc1cc(/C=C2\CCc3ccccc3C2=O)cc(OC)c1OC
recorded_value: 11
--
molecule: O=[N+]([O-])c1cc2no[n+]([O-])c2cc1N1CCCCC1
recorded_value: 98
--
molecule: COc1cc(CC2CC(c3ccc4c(c3)OCO4)OC2=O)cc(OC)c1OC (stereo unspecified)
recorded_value: -3
--
molecule: S=C(Nc1ccc(Cl)c(Cl)c1)SCc1ccc2c(c1)OCO2
recorded_value: 99
--
molecule: CC(C)OC(=O)Oc1ccccc1OC(=O)OC(C)C
recorded_value: -3
--
molecule: Fc1ccc(NC(=S)SCc2ccc3c(c2)OCO3)cc1F
recorded_value: 98
